Test system: NCI-H322M lung
test_details: NCI-60 one-dose screen, 48 h
experimental_setup: 10 µM unless noted
About 83,000 compounds went through this panel and 20% of them were active in at least one assay; those are over-represented in the sample as a whole. The source made the active and inactive calls. The calls were made as follows: active = growth percent below 10; inactive = the rest.
The categories you may choose from are active, inactive

Study these solved cases before continuing.
1) CC[C@@H](CO)Nc1ccc2ncc(C#Cc3cncc(C(=O)Nc4ccc(CN5CCN(C)CC5)c(C(F)(F)F)c4)c3)n2n1 ... active
2) NC(N)=Nc1ccc(Oc2cccc(NC(N)=Nc3ccc(Br)cc3)c2)cn1 ... inactive
3) Cc1nc(-c2ccccc2O)ccc1C(=O)N=Nc1c(O)[nH]c2ccc(Br)cc12 ... inactive
4) Cc1cc(C)cc(C(=O)Nc2cccc(C#Cc3cccc4[nH]nc(N)c34)c2)c1 ... inactive
5) Cc1ccc(-c2cc3nc(C(Cl)Cl)nc(-c4ccco4)n3n2)cc1 ... active

Task item: Recorded test call requested for `CN(C)C(=O)c1cc(-c2ccc3ncnc(NCc4ccccc4)c3c2)cnc1N`
Reply: inactive

Task item: Dear colleague, could you share the recorded outcome for CCN(CC)c1ccc2c(c1)Oc1nc(N)c(C#N)c(N)c1C2Sc1ccc(F)cc1 (centres undefined) when you have a moment?
Reply: active

Task item: Hi, do you know how `NC(N)=Nc1ccc(Oc2cccc(Nc3ccc(Cl)cc3)c2)cn1` came out in this test?
Reply: active

Task item: Record request — test call for `CNC(=O)c1cc(Oc2ccc3nc(NC(=O)c4cccc(OC(F)(F)F)c4)sc3c2)ccn1`
Reply: inactive

Task item: Short answer needed: outcome of this test for `CCN(CC)c1ccc(NC2=C(Cl)C(=O)c3nc(C)ccc3C2=O)cc1` ?
Reply: inactive

Task item: Which outcome was assigned to `O=S(=O)(Nc1ccc2c(c1)OCO2)c1ccc(-c2cnc(C3CC3)o2)cc1` in this test?
Reply: inactive

Task item: // return assay outcome for `CS(=O)(=O)c1ccc(-n2cc(/C=N/O)c(-c3ccccc3)n2)cc1`
Reply: inactive

Task item: In this assay, the call recorded for Cc1ccc(NC(=O)N[C@@H](Cc2cc(F)cc(F)c2)C(=O)NC2C(=O)N3C[C@H](O)C[C@H]3C(=O)N3CCCC[C@H]3C(=O)N[C@@H](CO)C(=O)N3C[C@H](C)C[C@H]3C(=O)O[C@H]2C)c(F)c1 (some centres undefined) was what?
Reply: inactive

Task item: Hi, sorry to bother you, what did the test record for `O=C(Nc1cccc(C(F)(F)F)c1)c1cc(-c2ccc(F)cc2F)ccc1O` ?
Reply: active

Task item: Called result for CCCn1cnc2c(c1=N)C(c1ccc(OC)cc1)c1sc3c(C)cccc3c1O2 (centres undefined)
Reply: inactive

Task item: Please indicate how the test categorized `COc1cc(-c2ccc3ncnc(NCc4ccccc4)c3c2)cnc1OC` .
Reply: inactive

Task item: Lab log entry: `Nc1nc(-c2cccc([N+](=O)[O-])c2)c(N=Nc2ccccc2)s1` — outcome as called in the assay?
Reply: inactive

Task item: Which outcome was assigned to `Cc1ccc(-c2nnc(SCc3ccc(O)c4ncccc34)n2-c2ccccc2)cc1` in this test?
Reply: inactive

Task item: Assay outcome for `O=C(CN1CCN(c2cc(=O)n(-c3ccccc3)c3ccccc23)CC1)Nc1nc(-c2ccccc2)cs1` : what was it?
Reply: inactive
